- Tested on: 958667-338-R-J2-PDC tumor spheroids viability;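 also: spheroids exposed to compounds for seven days before readout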
- assay-details: Anticancer human tumor 958667-338-R-J2-PDC patient-derived colon adenocarcinoma cell line growth inhibition [PI3K]
- applied-conditions: second compound 0.316 µM; first compound 0.01 µM; hits give low values; spheroids with HUVEC and MSC
- Excerpt: Combinatorial screen of targeted agents with the PI3K inhibitors inavolisib, alpelisib, duvelisib, and copanlisib in multi-cell type tumor spheroids A high-throughput screen of multi-cell type tumor spheroids was designed to identify active combinations of targeted small molecules and PI3K pathway inhibitors. […] Compounds. […] If the clinical Cmax for an agent had not been determined, the highest concentration tested was 10 microM. […]
Known viability, T/C of a selection of molecules

molecule	unit-info	viability, T/C
Cn1ncnc1[C@H]1c2n[nH]c(=O)c3cc(F)cc(c23)N[C@@H]1c1ccc(F)cc1 + CC(Nc1ncnc2nc[nH]c12)c1cc2cccc(Cl)c2c(=O)n1-c1ccccc1	%	116
CCN1CCN(Cc2ccc(Nc3ncc(F)c(-c4cc(F)c5nc(C)n(C(C)C)c5c4)n3)nc2)CC1 + COc1c(OCCCN2CCOCC2)ccc2c3n(c(=NC(=O)c4cnc(N)nc4)nc12)CCN3	%	33.4
Cn1ncnc1[C@H]1c2n[nH]c(=O)c3cc(F)cc(c23)N[C@@H]1c1ccc(F)cc1 + CC(Nc1ccc2c(c1)OCCn1cc(N3C(=O)OCC3C(F)F)nc1-2)C(N)=O	%	59.7

Source: PubChem BioAssay AID1963963
